Assign GI50 to each entry below.
Tested on: A549
Assay: NCI tumour cell line growth inhibition, 48 h
Calls of active or inactive are those of the source. Cut-off read from the data, not from the text of the source: active = GI50 up to about 1.1 µM and inactive = higher.

Param item = CC1(C)O[C@@H]2[C@@H]3OC(=O)C[C@@H]3[C@@H](COCc3ccccc3)[C@@H]2O1 ; retrieve measured GI50.
> 100 µM (inactive)

Could you tell me which GI50 is on file for Cc1ccc(/N=N\c2c(O)ccc3cc(S(=O)(=O)O)ccc23)cc1 ?
> 100 µM (inactive)

Please report the recorded GI50 for CC1=C(/C=C/C(C)=C/C=C/C(C)=C/C(=O)OC2CC(n3cc(F)c(=O)[nH]c3=O)OC2CO)C(C)(C)CCC1 (stereo not given) .
0.153 µM (active)

For the compound FC(F)(F)c1nc(-c2ccccc2Cl)[nH]c1C(F)(F)F , what GI50 is on record?
0.7 µM (active)

# GI50 lookup, item CC1CC(C#N)=C2NCCCCN2C1=O (stereo not given)
> 100 µM (inactive)
